Tested on: MDA-MB-468 breast
test details: NCI-60 one-dose screen, 48 h (100 = growth as untreated, 0 = no growth, -100 = all killed)
measurement conditions: 10 µM unless noted
About 83,000 compounds went through this panel and 20% of them were active in at least one assay; those are over-represented in the sample as a whole.
Field: growth. Provide a value for each of the compounds that follow.
One number for each entry, in %.

>>> value("COc1ccc(C(=O)c2cc(OC)c(OC)c(OC)c2)cc1O")
-14.4
>>> value("COc1ccc(C2Nc3c(c(C(C)(C)C)nn3-c3ccccc3)C(=O)CS2)cc1 (stereo unspecified)")
112
>>> value("CC1(C)CC[C@]2(C(=O)N[C@H](CO)Cc3ccccc3)CC[C@]3(C)C(=CC[C@@H]4[C@@]5(C)CCCNC(C)(C)[C@@H]5CC[C@]43C)[C@@H]2C1")
37.8
>>> value("CCc1nc(C(N)=O)c(Nc2ccc(N3CCC(N4CCN(C)CC4)CC3)c(OC)c2)nc1NC1CCOCC1")
69.7
>>> value("COc1cc(C2CC(c3ccc(Cl)cc3)=NN2C(C)=O)ccc1Oc1nc2c(c(=O)n(C)c(=O)n2C)n1C (stereo unspecified)")
76.6

Which growth value is on record for "CN(C)c1ccc2nc3ccc(=[N+](C)C)c([N+](=O)[O-])c-3sc2c1" ? 0.864

Origin of the recorded values: PubChem BioAssay (NCI)
